Origin of the recorded values: patent US20230293738A1

# tested_system: T1, human 2Ig-B7H3 (B7H3-2Ig-His) (human, UniProt Q5ZPR3 29-466)
# T1 construct: Recombinant His-tagged protein immobilised on a CM5 chip; also called 21g-B7H3; B7H3-21g-His; not shown: His tag
# T1 sequence: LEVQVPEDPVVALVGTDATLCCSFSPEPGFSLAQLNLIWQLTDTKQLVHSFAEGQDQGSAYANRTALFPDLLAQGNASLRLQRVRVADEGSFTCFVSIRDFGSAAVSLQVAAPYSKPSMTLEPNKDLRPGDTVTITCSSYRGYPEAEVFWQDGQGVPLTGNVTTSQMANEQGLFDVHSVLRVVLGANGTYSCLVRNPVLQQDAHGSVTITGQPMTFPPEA
# measurement_description: SPR
Please respond with reported t ½ for every item in the list.
Returns: string containing the number followed by the unit.

Query :: Name the reported t ½ value associated with the binder 175Lu-DTPA-8H9-antibody (CAR3) (antibody, mouse IgG1, kappa, V domains shown, p-SCN-Bn-CHX-A″-DTPA conjugated (CAR 3 per antibody), labelled with cold lutetium-175; sites not stated) VH: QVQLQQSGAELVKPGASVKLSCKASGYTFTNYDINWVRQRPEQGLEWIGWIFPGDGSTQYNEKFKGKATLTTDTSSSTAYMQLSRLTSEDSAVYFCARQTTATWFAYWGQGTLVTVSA VL: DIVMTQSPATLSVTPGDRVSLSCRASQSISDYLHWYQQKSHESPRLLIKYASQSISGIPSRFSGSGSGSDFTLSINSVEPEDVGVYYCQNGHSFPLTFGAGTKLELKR
Result :: 5.94 h

Query :: Form field: reported t ½ of 175Lu-DTPA-8H9-antibody (CAR1.4) (antibody, mouse IgG1, kappa, V domains shown, p-SCN-Bn-CHX-A″-DTPA conjugated (CAR 1.4 per antibody), labelled with cold lutetium-175; sites not stated) VH: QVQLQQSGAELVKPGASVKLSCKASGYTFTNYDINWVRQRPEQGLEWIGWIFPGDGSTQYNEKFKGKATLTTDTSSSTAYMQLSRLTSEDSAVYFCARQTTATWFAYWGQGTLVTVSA VL: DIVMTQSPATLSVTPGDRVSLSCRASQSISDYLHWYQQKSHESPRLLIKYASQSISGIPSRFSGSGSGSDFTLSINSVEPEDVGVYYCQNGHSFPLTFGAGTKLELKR
Result :: 28.1 h

Query :: So what's the measured t ½ for this one? 127I-8H9-antibody P76501A (antibody, mouse IgG1, kappa, V domains shown, labelled with iodine-127; sites not stated) VH: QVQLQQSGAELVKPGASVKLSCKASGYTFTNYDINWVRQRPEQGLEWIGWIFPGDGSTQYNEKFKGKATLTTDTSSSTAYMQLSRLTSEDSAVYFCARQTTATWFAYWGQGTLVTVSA VL: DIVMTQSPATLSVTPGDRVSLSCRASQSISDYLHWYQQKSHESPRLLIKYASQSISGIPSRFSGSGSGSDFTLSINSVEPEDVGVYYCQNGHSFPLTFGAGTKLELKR
Result :: 308 h

Query :: Entry 175Lu-DTPA-8H9-antibody (CAR3.6) (antibody, mouse IgG1, kappa, V domains shown, p-SCN-Bn-CHX-A″-DTPA conjugated (CAR 3.6 per antibody), labelled with cold lutetium-175; sites not stated) VH: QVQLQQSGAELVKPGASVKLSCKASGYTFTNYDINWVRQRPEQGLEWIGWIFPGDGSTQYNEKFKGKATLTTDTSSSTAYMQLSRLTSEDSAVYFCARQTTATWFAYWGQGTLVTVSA VL: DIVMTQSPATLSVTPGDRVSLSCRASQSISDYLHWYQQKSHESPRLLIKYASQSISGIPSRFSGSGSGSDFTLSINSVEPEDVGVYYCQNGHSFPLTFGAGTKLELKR : reported t ½ = ?
Result :: 5 h
